Data provenance: paper PMC10397247

Kindly supply the reported interaction score values for the records listed here.
Subject Of Test: T1, 4H967-bH
T1 chain: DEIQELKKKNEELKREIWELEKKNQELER
Experimental Protocol: two-hybrid library CCNG1;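 also: natural log of median RNA to DNA barcode read ratio; higher means stronger binding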
Numbers only.

INSERT INTO measurements (binder, experimental_endpoint, meas_value) VALUES
  ('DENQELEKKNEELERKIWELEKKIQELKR [4H1446-bH]', 'interaction score', 0.346),
  ('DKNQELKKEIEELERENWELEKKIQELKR [4H3606-bH]', 'interaction score', 1.21),
  ('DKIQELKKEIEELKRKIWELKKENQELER [4H2667-bH]', 'interaction score', -0.166),
  ('DEIQELKKKNEELERENWELEKKIQELKR [4H918-bH]', 'interaction score', -0.25),
  ('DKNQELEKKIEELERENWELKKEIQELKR [4H3354-bH]', 'interaction score', -0.105),
  ('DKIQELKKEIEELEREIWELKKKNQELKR [4H2576-bH]', 'interaction score', -3.3),
  ('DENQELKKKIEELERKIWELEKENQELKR [4H1828-bH]', 'interaction score', -0.867),
  ('DEIQELEKKNEELKREIWELEKKIQELKR [4H454-bH]', 'interaction score', 0.69);

Below are some binders; for each one, tell me its interaction score.
1. DKNQELKKENEELKREIWELEKKIQELKR [4H3782-bH]
2. DEIQELEKKNEELKREIWELKKKIQELKR [4H462-bH]
3. DEIQELKKKNEELERKNWELKKEIQELER [4H953-bH]
4. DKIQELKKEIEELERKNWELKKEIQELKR [4H2618-bH]
5. DEIQELKKKNEELKREIWELEKKNQELER [4H967-bH]
6. DEIQELKKEIEELERKNWELEKKNQELKR [4H568-bH]
7. DEIQELKKKIEELKRKNWELEKENQELER [4H883-bH]

1: -0.136; 2: -0.847; 3: -0.919; 4: -0.781; 5: -0.406; 6: 0.179; 7: -0.709

Parameter requested: interaction score. Apply to each item below.
1. DEIQELEKKIEELKRKNWELEKEIQELKR [4H370-bH]
2. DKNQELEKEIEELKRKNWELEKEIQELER [4H3185-bH]
3. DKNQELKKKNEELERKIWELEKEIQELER [4H4001-bH]
4. DEIQELKKKIEELERENWELKKKIQELER [4H797-bH]
5. DEIQELKKENEELKRKNWELEKEIQELKR [4H754-bH]
6. DKNQELKKKIEELEREIWELKKKNQELER [4H3855-bH]
7. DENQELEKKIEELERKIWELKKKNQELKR [4H1328-bH]
8. DEIQELKKEIEELKRENWELKKKNQELER [4H607-bH]

[0.239, -1.56, -2.28, 0.229, -0.713, -0.847, -1.62, -2]

Kindly give each listed record's interaction score.
1. DEIQELEKEIEELKREIWELEKKNQELKR [4H72-bH]
2. DEIQELKKENEELERKIWELKKKNQELER [4H687-bH]
3. DEIQELKKKNEELEREIWELKKENQELKR [4H908-bH]
4. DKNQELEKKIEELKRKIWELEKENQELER [4H3427-bH]

[0.0764, 1.63, -0.426, -1.41]
